assay: Tissue and tumor distribution in A375 tumor-bearing nude mice; type: in vivo, mouse; conditions: nude, mouse, tumor, po, 10 mg/kg, Cmax, single dose

# MOLECULE, Cmax, ng/g
records = [
    ("Cn1cnc2c(F)c(Nc3ccc(Br)cc3Cl)c(C(=O)NOCCO)cc21 [AZD6244]", 861),
]

###

experiment: Plasma pharmacokinetics in A375 tumor-bearing nude mice; type: in vivo, mouse; details: nude, mouse, plasma, po, 10 mg/kg
PROPERTY NAME: Cmax (ng/mL)

# MOLECULE SMILES, PROPERTY NAME, QUANTITATIVE READOUT
records = [
    ("Cn1cnc2c(F)c(Nc3ccc(Br)cc3Cl)c(C(=O)NOCCO)cc21", "Cmax", 3350),
]

###

test: Tissue and tumor distribution in A375 tumor-bearing nude mice; assay type: in vivo, mouse; details: nude, mouse, tumor, po, 10 mg/kg, Cmax, steady state
PROPERTY NAME: Cmax (ng/g)

# MOLECULE SMILES, PROPERTY NAME, QUANTITATIVE READOUT
measured = [
    ("Cn1cnc2c(F)c(Nc3ccc(Br)cc3Cl)c(C(=O)NOCCO)cc21", "Cmax", 487),
]

###

assay: Plasma pharmacokinetics in A375 tumor-bearing nude mice; type: in vivo, mouse; details: nude, mouse, plasma, po, 5 mg/kg
PROPERTY NAME: Vd/F (L/kg)

# COMPOUND, UNIT SPEC, QUANTITATIVE READOUT
measured = [
    ("Cn1cnc2c(F)c(Nc3ccc(Br)cc3Cl)c(C(=O)NOCCO)cc21 [AZD6244]", "L/kg", 1.7),
]

###

assay: Tissue and tumor distribution in A375 tumor-bearing nude mice; format: in vivo, mouse; conditions: nude, mouse, skin, po, 10 mg/kg, Cmax, single dose

# COMPOUND, UNIT SPEC, Cmax
rows = [
    ("Cn1cnc2c(F)c(Nc3ccc(Br)cc3Cl)c(C(=O)NOCCO)cc21 [AZD6244]", "ng/g", 169),
]

###

test: Tissue and tumor distribution in A375 tumor-bearing nude mice; assay type: in vivo, mouse; conditions: nude, mouse, gut, po, 10 mg/kg, Cmax, steady state

# MOLECULE SMILES, Cmax at 1 week (ng/g)
measured = [
    ("Cn1cnc2c(F)c(Nc3ccc(Br)cc3Cl)c(C(=O)NOCCO)cc21", 6780),
]

###

experiment: Plasma pharmacokinetics in A375 tumor-bearing nude mice; assay type: in vivo, mouse; settings: nude, mouse, plasma, po, 5 mg/kg

# MOLECULE SMILES, UNIT SPEC, CL/F
measured = [
    ("Cn1cnc2c(F)c(Nc3ccc(Br)cc3Cl)c(C(=O)NOCCO)cc21", "mL/min/kg", 6.67),
]

###

test: Tissue and tumor distribution in A375 tumor-bearing nude mice; format: in vivo, mouse; details: nude, mouse, lung, po, 10 mg/kg, Cmax, single dose

# COMPOUND, UNIT SPEC, Cmax
rows = [
    ("Cn1cnc2c(F)c(Nc3ccc(Br)cc3Cl)c(C(=O)NOCCO)cc21 [AZD6244]", "ng/g", 327),
]

###

assay: Plasma pharmacokinetics in A375 tumor-bearing nude mice; type: in vivo, mouse; conditions: nude, mouse, plasma, po, 10 mg/kg

# COMPOUND, Vd/F [L/kg]
rows = [
    ("Cn1cnc2c(F)c(Nc3ccc(Br)cc3Cl)c(C(=O)NOCCO)cc21 [AZD6244]", 2),
]
